# assayComment: NCI Yeast Anticancer Drug Screen. Data for the rad18 strain (AID 177)
# measurementSetup: S. cerevisiae rad18 mutant growth inhibition; at 1.2 µM
Compounds without any hit were thinned out: in the full panel of roughly 79,000, 15% have a hit. Active and inactive are the calls of the source. Cut-off read from the data, not from the text of the source: active = growth inhibition above about 70%; inactive = the rest.
Log the outcome using a class from active, inactive

compound=CCCCN(CCCC)c1ccc(N=Nc2ccc(S(=O)(=O)O)cc2)cc1 classname=inactive
compound=CCCCCc1c(CCCC)c(=O)[nH]c2cc(CNCC(OC)OC)ccc12 classname=inactive
compound="CCN1CCC(O)(c2ccc(Oc3ccc(C)cc3)cc2)C(C(=O)c2ccc(Oc3ccc(C)cc3)cc2)C1 (stereo not drawn)" classname=inactive

Exercise: Kindly provide the recorded test outcome for the following compound: Cc1cc2nc3ccccc3n2c2ccccc12
Solution: inactive

Exercise: Kindly provide the recorded test outcome for the following compound: CCCCCCC=C(C(=O)OCC)C(=O)OCC
Solution: inactive

====

Field: growth inhibition. Provide a value for each of the molecules that follow.
# assayComment: NCI Yeast Anticancer Drug Screen. Data for the rad50EPP+ strain (AID 151);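 note: 0% = growth of vehicle-treated control cultures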
# measurementSetup: S. cerevisiae rad50 mutant strain, at 3.7 µM, hits give high values
The panel holds about 79,000 compounds, 15% with a hit somewhere; the sample as a whole holds those more often.
Numbers only, in %.

molecule=CNC(=S)N/N=C(/C)CCC/C(C)=N/NC(=S)NC propertyname="growth inhibition" uom=% assayresult=17
molecule=CCOC(=O)Nc1ccc(C)c(NC(=O)OCC)c1 propertyname="growth inhibition" uom=% assayresult=8
molecule=CC(C)OP(=O)(OC(C)C)/C(Cl)=N/Nc1ccc([N+](=O)[O-])cc1 propertyname="growth inhibition" uom=% assayresult=50
molecule="O=NC1c2cccc3cccc(c23)C1N=O (stereo unspecified)" propertyname="growth inhibition" uom=% assayresult=41
molecule="CC(=O)CC(c1ccccc1)c1c(O)c2ccccc2oc1=O (stereo unspecified)" propertyname="growth inhibition" uom=% assayresult=4

For each of the molecules below, state growth inhibition.
1. CCC[CH2][Sn]([CH2]CCC)([CH2]CCC)/[C](=C/[Si](C)(C)c1ccccc1)c1ccc2c(c1)OCO2
2. O=C(O)C(=Cc1ccc(-c2ccccc2)cc1)C(=O)O
3. NC(=S)N1N=C2c3ccccc3CC[C@H]2[C@@H]1c1ccc(Cl)cc1
4. CN(C)/C(=N/C(=S)Nc1ccccc1)SCc1ccccc1
5. CC(CC/C(=N/O)c1ccccc1)(CC/C(=N\O)c1ccccc1)[N+](=O)[O-] (stereo unspecified)
6. C/C(=N\OCC(O)CNCCSCc1ccccc1)c1ccccc1Cl (stereo unspecified)

Solution:
1. 17
2. -1
3. -10
4. 1
5. 2
6. 0

====

# assayComment: NCI Yeast Anticancer Drug Screen. Data for the rad50 strain (AID 155);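 note: 0% = growth of vehicle-only cultures of the same strain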
# measurementSetup: S. cerevisiae rad50 strain growth inhibition; at 5.0 µM (retest, dose inferred, filed as 0.5); hits give high values
The panel holds about 79,000 compounds, 15% with a hit somewhere; the sample as a whole holds those more often.
Kindly note that classification relies on growth inhibition with these boundaries: band 1 (below 10%), band 2 (10% to below 60%), band 3 (60% or more)

compound="O=C1C2=C(c3ccccc31)C(c1ccccc1)N1C(=O)CSC1=N2 (stereo unspecified)" classname="band 2"
compound=O=S(=O)(c1ccccc1)N1CN2CN(C1)CN(S(=O)(=O)c1ccccc1)C2 classname="band 2"

Exercise: State the band of C[C@H](CCC1=NC(C)(C)CO1)C1CCC2[C@@H]3C(O)C[C@@H]4CC(O)CC[C@]4(C)C3CC[C@@]21C (stereo partly specified)
Solution: band 1

Exercise: State the band of c1c[nH]c(CN2CCN(Cc3ncc[nH]3)CC2)n1
Solution: band 3

Exercise: State the band of C1=CCN([B-](c2ccccc2)[C+]2CCCCC2)C=C1
Solution: band 1

Exercise: State the band of Brc1ccc(B2Nc3ccccc3N2)cc1
Solution: band 2

Exercise: State the band of O=[N+]([O-])/C=C/c1cc2ccc3ccccc3c2[nH]1
Solution: band 3

Exercise: State the band of CCCCOc1ccc2nc(C)cc(N=[N+]=[N-])c2c1
Solution: band 2

Exercise: State the band of C[N+](C)([O-])CCCNc1c2ccccc2nc2cccc([N+](=O)[O-])c12
Solution: band 3

Exercise: State the band of O=C1Nc2ccc(Br)cc2C1=Nc1ccc(Cl)cc1
Solution: band 3
